target: Human α2δ-1 Subunit of Cav2.2 Calcium Channel (Homo sapiens, UniProt P54289); assay: Binding assay to human α2δ-1 subunit of Cav2.2 calcium channel ([3H]-Gabapentin); details: Table 1; human α2δ-1 enriched membranes, 15 nM [3H]-Gabapentin; read-out: Ki(nM) alpha2delta Hum
Sequence (P54289 25-1103): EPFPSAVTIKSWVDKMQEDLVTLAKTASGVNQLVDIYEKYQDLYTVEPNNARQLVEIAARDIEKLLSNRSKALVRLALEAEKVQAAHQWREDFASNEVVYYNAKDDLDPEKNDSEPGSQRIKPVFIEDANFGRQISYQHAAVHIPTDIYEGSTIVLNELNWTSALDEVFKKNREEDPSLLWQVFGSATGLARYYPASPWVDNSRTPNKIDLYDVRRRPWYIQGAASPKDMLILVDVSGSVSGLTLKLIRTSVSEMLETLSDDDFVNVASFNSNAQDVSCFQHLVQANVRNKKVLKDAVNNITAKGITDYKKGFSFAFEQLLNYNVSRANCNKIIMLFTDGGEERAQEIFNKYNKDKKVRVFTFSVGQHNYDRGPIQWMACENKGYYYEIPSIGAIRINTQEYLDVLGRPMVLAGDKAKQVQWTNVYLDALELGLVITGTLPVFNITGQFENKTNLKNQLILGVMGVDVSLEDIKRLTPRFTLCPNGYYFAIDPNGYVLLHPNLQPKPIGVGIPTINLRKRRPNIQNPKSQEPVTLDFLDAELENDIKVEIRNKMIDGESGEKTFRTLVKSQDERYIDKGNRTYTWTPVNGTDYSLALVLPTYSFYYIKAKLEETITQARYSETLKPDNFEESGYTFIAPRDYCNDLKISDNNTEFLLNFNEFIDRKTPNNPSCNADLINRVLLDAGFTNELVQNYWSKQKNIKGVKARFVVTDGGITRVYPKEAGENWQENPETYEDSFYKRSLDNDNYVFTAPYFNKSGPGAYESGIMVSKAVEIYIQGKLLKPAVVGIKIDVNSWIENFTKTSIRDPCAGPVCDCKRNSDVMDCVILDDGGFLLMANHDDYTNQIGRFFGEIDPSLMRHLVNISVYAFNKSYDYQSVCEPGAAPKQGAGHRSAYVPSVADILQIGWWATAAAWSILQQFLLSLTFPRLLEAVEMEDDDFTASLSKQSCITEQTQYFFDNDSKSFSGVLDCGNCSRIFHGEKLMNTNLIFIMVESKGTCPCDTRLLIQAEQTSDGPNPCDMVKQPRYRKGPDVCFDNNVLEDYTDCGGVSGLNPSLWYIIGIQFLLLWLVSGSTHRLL
outcomeMeasure: Ki

See these solved cases before continuing.
| compound | outcomeMeasure | recordedValue |
| --- | --- | --- |
| CCNc1ncc(C(=O)N(C)c2cccc(OC(CCNC)c3ccccc3)c2)cn1 (stereo not shown) | Ki | ≥ 3000 nM |
| CCNc1ncc(C(=O)Nc2cccc(COC(CCNC)c3cccs3)c2)c(N2CCCC2)n1 (stereo not shown) | Ki | 500 to 3000 nM |
| CNCCC(OCc1cccc(N(C)C(=O)c2cnc(OC)nc2)c1)c1ccccc1 (stereo not shown) | Ki | ≥ 3000 nM |

Kindly consider the entry below.
Provide only the value of recorded Ki for CNCCC(OCc1cccc(N(C)C(=O)c2cccnc2)c1)c1ccccc1 (stereo not shown)
≥ 3000 nM
